Test: Photo stability: effect of solar simulating UV irradiation on SPF values of sunscreens
Format: physicochemical
Conditions: UV (66% UVA + 33% UVB) 0 J/cm^2; fifty μM solution
PROPERTY: SPF after UV irradiation
Answers are plain numbers.

Worked examples, 4 compounds total:
# input Any idea what SPF after UV irradiation was measured for COc1cc(/C=C/C(=O)O)ccc1O [trans-Ferulic acid] ?
# output 7.34

# input Any idea what SPF after UV irradiation was measured for C[C@@H]1O[C@@H](O[C@@H]2[C@@H](O)[C@H](OCCc3ccc(O)c(O)c3)O[C@H](CO)[C@H]2OC(=O)/C=C/c2ccc(O)c(O)c2)[C@H](O)[C@H](O)[C@H]1O [Verbascoside] ?
# output 8.25

# input Any idea what SPF after UV irradiation was measured for `O=c1cc(-c2ccccc2)oc2cc(O)c(O)c(O)c12` ?
# output 3.68

# input Any idea what SPF after UV irradiation was measured for `O=C1c2c(O)cc(O)cc2O[C@H](c2ccc(O)c(O)c2)[C@H]1O` ?
# output 6.38

Proceed to the following item.
# input Any idea what SPF after UV irradiation was measured for `Oc1ccc(C=Cc2cc(O)cc(O)c2)cc1` ?
# output 11.98
